Target: PI3-kinase p110-alpha/p85-alpha (Homo sapiens, UniProt P42336, E542K)
Sequence (P42336 whole entry E542K, looked up): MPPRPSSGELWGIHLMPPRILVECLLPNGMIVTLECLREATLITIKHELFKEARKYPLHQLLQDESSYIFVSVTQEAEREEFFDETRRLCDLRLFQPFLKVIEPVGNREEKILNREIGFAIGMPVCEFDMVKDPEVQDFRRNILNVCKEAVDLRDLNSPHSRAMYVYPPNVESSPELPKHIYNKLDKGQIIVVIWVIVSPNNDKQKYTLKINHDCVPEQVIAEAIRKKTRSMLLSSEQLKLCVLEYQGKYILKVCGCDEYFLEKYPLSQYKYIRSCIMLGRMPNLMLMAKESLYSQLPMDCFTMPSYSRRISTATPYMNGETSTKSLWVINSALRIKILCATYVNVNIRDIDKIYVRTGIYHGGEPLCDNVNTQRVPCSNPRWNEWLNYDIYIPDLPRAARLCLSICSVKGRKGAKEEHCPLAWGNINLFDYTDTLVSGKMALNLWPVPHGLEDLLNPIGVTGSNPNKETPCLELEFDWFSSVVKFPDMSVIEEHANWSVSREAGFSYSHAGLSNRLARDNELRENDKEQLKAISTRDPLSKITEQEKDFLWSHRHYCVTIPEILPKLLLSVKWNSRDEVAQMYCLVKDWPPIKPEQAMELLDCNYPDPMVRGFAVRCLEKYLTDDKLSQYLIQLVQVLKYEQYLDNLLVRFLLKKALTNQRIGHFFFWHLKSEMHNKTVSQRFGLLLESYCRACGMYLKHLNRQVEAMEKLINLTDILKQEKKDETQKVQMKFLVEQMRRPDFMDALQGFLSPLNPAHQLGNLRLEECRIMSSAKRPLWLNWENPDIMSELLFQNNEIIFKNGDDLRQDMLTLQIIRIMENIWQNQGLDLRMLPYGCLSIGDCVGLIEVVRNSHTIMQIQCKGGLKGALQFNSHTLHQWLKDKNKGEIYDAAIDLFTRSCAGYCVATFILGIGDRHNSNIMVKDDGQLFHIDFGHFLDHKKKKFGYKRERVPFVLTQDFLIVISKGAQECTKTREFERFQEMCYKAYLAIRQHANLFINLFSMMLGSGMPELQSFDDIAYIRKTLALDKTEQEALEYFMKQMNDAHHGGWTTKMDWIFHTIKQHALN
Experiment: Inhibition of p110alpha E542K mutant/p85alpha (unknown origin) using PIP2:3PS lipid kinase as substrate in presence of ATP measured by ADP-Glo lipid kinase assay
recorded metric: Ki

Ask: Find the recorded Ki belonging to COc1ncc2cc1NS(=O)(=O)c1cccc(c1)C(=O)NCc1cncc(c1)-c1cnc3ccc-2cn13 and report it.
Result: 0.27 nM

* * *

Assay: Oral bioavailability in BALB/c mouse at 10 mg/kg measured for 8 hrs
Type: ADME, organism-based
Conditions: in vivo
recorded metric: bioavailability (%)
Give the value in % but do not write % after it.

- smiles structure: "COc1ncc2cc1NS(=O)(=O)c1cccc(c1)C(=O)NCc1cncc(c1)-c1cnc3ccc-2cn13"
  bioavailability [%]: 84.6

Ask: Find the recorded bioavailability belonging to COc1ncc2cc1NS(=O)(=O)c1cc(c(F)cc1F)C(=O)NCc1cncc(c1)-c1ccnc3ccc-2cc13 and report it.
Result: 40.6

Ask: Find the recorded bioavailability belonging to COc1ncc2cc1NS(=O)(=O)c1cccc(c1)C(=O)NCc1cncc(c1)-c1ncnc3ccc-2cc13 and report it.
Result: 47.6
